Items are presented alongside their recorded IC50, proliferation of HDMEC cells +bFGF (10 ng/ml).
Target: bFGF (soluble stimulus added to cell cultures)
Experiment: cell-based or functional assay
Lab book: enter the figure in nM, no units written.

Nb-F3 (VHH, carries the C-terminal c-myc tracer peptide and histidine tag; also called VHH Nb-F3) VHH: QVQLVESGGGLVQPGGSLRLSCAASGTEDGRLLTLGGSWFRQAPGQGLEAVAAIGAGDRGGATYYADSVKGRFTISRDNSKNTLYLQMNSLRAEDTAVYYCTALYERQPQLAATKVARKWGQGTLVTVSS : 121

Could you now look at the following binder, please?
State the recorded IC50, proliferation of HDMEC cells +bFGF (10 ng/ml) for this entry: Nb-FV1 (bispecific antibody, Bispecific tandem VHH (bFGF and VEGF); with c-myc and histidine tag) QVQLVESGGGLVQPGGSLRLSCAASGTEDGRLLTLGGSWFRQAPGQGLEAVAAIGAGDRGGATYYADSVKGRFTISRDNSKNTLYLQMNSLRAEDTAVYYCTALYERQPQLAATKVARKWGQGTLVTVSSAHHSEDPSSKAPKAPAQVQLVESGGGLVQPGGSLRLSCAASGNSAEDRLYNSYTWFRQAPGQGLEAVAAISSHFSAGLTYYADSVKGRFTISRDNSKNTLYLQMNSLRAEDTAVYYCEITSHASHNDAWSTPRTVWGQGTLVTVSSAAAGSEQKLISEEDLNSHHHHHH 122

meta.source: patent US20250326826A1
